target: T1, p5 peptide of EGFL7 (human); assay: SPR (Biacore), IgG over immobilized P5 peptide at 37 C;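 note: IgG variants injected at 0.5–1000 nM (2-fold series), 3 min association and 3.5 min dissociation, reference flow cell subtracted, kinetics fitted with a 1:1 Langmuir model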
T1 construct: also called Peptide P5
T1 peptide: RACSTYRTIYRTA
pKd: −log10 of the molar value.
Documented pKd across a set of binders
EXPERIMENTAL_ENDPOINT: pKd

BINDER	OBSERVED
18F7.v6I IgG (antibody, V domains shown, IgG; Variant of 18F7.v6) VH: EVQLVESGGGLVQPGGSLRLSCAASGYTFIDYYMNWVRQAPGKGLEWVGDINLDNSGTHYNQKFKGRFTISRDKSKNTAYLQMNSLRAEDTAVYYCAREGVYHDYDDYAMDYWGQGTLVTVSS VL: DIQMTQSPSSLSASVGDRVTITCRTSQSLVHIQGITYLHWYQQKPGKAPKLLIYRVSNRFSGVPSRFSGSGSGTDFTLTISSLQPEDFATYYCGQSTHVPLTFGQGTKVEIK	7.78
18F7.v2 IgG (antibody, name in Kabat numbering, V domains shown, IgG; Kabat numbering; also called 18F7-K) VH: EVQLVESGGGLVQPGGSLRLSCAASGYTFIDYYMNWVRQAPGKGLEWVGDINLDNGGTHYNQKFKGRFTISRDKSKNTLYLQMNSLRAEDTAVYYCAREGVYHDYDDYAMDYWGQGTLVTVSS VL: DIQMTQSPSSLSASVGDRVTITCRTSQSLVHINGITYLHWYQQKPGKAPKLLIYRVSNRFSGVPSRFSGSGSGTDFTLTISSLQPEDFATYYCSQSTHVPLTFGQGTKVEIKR	8.59
18F7.v9 IgG (antibody, V domains shown, IgG; Kabat numbering) VH: EVQLVESGGGLVQPGGSLRLSCAASGYTFIDKYMNWVRQAPGKGLEWVGDINLDNGGTHYNQKFKGRFTISRDKSKNTAYLQMNSLRAEDTAVYYCAREGVYHDYDDYAMDYWGQGTLVTVSS VL: DIQMTQSPSSLSASVGDRVTITCRTSQSLVHINGITYLHWYQQKPGKAPKLLIYRVSNRFSGVPSRFSGSGSGTDFTLTISSLQPEDFATYYCSQSTHVPLTFGQGTKVEIK	8.47

Hello, the source for this data is patent US20140051120A1, in case you need it.
